TARGET SYSTEM: PBP3 from Escherichia coli (K-12) (Escherichia coli, UniProt P0AD68)
Sequence (P0AD68 1-577): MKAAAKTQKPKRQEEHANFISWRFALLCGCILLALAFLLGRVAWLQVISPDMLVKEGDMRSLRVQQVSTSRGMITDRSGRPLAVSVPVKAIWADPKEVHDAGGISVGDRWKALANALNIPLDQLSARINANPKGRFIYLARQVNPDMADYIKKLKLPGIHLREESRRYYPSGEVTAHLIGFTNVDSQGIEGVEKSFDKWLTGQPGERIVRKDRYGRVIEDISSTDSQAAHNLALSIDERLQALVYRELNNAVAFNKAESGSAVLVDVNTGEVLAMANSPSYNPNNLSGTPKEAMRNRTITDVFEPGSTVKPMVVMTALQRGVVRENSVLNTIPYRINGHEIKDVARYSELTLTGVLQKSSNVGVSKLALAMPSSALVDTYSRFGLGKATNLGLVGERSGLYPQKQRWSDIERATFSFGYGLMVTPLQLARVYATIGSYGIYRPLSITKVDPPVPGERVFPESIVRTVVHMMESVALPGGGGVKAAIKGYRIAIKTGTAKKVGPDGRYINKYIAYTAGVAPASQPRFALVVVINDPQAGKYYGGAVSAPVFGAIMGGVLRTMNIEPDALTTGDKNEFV
ASSAY EXPLANATION: Bocillin-FL fluorescence polarization competition binding, E. coli PBP3
METRIC NAME: EC50

Use the examples below as a reference point.
MOLECULE	EC50
O=C(NCCCN1CCN(C(=O)NC(C(=O)N[C@H]2Cc3ccc(F)c(C(=O)O)c3OB2O)c2cc(F)c(O)c(O)c2Cl)C(=O)C1=O)Nc1cccnc1 (stereo partly shown) [Example 213]	< 10 µM
O=C(O)c1cccc2c1OB(O)[C@@H](NC(=O)[C@@H](NC(=O)c1ccn[nH]c1=O)c1ccc(P(=O)(O)O)cc1)C2 (single isomer, unassigned) [Example 177]	10 to 50 µM
CS(=O)(=O)N1CCC[C@H]1C(=O)N[C@H](C(=O)N[C@H]1Cc2cccc(C(=O)O)c2OB1O)c1ccc(P(=O)(O)O)cc1 [Example 43]	50 to 250 µM
O=C(O)c1cccc2c1OB(O)[C@@H](NC(=O)[C@H](NC(=O)[C@@H]1CCCN1)c1ccc(P(=O)(O)O)cc1)C2 [Example 173]	50 to 250 µM
O=C(O)c1cccc2c1OB(O)[C@@H](NC(=O)[C@H](NC(=O)N1CCCCC1=O)c1ccc(P(=O)(O)O)cc1)C2 [Example 37]	< 10 µM
O=C(O)c1c(F)ccc2c1OB(O)[C@@H](NC(=O)C(NC(=O)N1CCN(Cc3ccc(O)c(O)c3Cl)C1=O)c1ccc(P(=O)(O)O)cc1)C2 (stereo partly shown) [Example 46]	< 10 µM

Just so you know, measured EC50 for O=C(O)c1c(F)ccc2c1OB(O)[C@@H](NC(=O)[C@H](NC(=O)N1CCN(CCNC(=O)[C@@H]3CCCN3)C(=O)C1=O)c1cc(F)c(O)c(O)c1Cl)C2 [Example 229] came out at 10 to 50 µM

###

TARGET SYSTEM: A. baumannii PBP1a (Acinetobacter baumannii, UniProt A0ABX6CK30)
Sequence (A0ABX6CK30 1-851): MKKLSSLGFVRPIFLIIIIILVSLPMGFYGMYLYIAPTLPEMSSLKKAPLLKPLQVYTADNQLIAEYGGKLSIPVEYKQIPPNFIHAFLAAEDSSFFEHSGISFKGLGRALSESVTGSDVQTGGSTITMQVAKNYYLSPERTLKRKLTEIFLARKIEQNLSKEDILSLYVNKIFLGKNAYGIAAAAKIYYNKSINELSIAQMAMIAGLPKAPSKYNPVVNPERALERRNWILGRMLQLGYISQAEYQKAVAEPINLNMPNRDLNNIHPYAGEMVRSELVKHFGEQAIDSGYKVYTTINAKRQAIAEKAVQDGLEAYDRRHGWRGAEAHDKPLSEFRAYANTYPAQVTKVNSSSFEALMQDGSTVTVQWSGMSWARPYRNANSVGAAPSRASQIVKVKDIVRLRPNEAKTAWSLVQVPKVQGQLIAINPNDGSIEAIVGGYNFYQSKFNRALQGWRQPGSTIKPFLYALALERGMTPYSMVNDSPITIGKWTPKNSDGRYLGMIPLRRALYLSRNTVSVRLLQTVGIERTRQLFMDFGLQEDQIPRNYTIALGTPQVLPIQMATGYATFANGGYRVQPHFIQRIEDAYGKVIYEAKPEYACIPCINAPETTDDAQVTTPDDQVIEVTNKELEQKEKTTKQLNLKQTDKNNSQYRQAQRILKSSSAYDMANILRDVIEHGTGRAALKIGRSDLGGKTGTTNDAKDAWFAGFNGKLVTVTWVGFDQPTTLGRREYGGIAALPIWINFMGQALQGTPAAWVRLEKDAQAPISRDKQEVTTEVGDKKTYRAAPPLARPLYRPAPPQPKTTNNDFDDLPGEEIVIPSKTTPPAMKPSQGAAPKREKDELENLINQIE
ASSAY EXPLANATION: Bocillin-FL competition binding via gel filtration, A. baumannii PBP1a
SETUP CONDITIONS: competition binding assay using Bocillin-FL via gel filtration; read-out: A. baumannii PBP1a Potency
pEC50: −log10 of the molar value.
We begin with a simple list: items and their reported pEC50.

Answered cases to consult:
MOLECULE	pEC50
O=C(O)c1c(F)ccc2c1OB(O)[C@@H](NC(=O)[C@H](NC(=O)N1CCN(C3CCN(C(=O)c4c(F)ccc(O)c4F)CC3)C1=O)c1cc(F)c(O)c(O)c1Cl)C2 (single isomer, unassigned)	4.30 to 5.00
O=C(O)c1c(F)ccc2c1OB(O)[C@@H](NC(=O)C(NC(=O)N1CCN(C3CCN(Cc4ccc(F)c(O)c4)CC3)C1=O)c1cc(F)c(O)c(O)c1Cl)C2 (single isomer, unassigned)	> 5.00
O=C(O)c1c(F)ccc2c1OB(O)[C@@H](NC(=O)[C@H](NC(=O)N1CCN(C3CCN(C(=O)Nc4cccc(O)c4)CC3)C1=O)c1cc(F)c(O)c(O)c1Cl)C2	> 5.00

molecule O=C(O)c1c(F)ccc2c1OB(O)[C@@H](NC(=O)[C@H](NC(=O)N1CCN(C3CCN(C(=O)Nc4ccc(F)c(O)c4)CC3)C1=O)c1cc(F)c(O)c(O)c1Cl)C2 (single isomer, unassigned) , pEC50 observed: > 5.00

The reported pEC50 of the molecule O=C(O)c1c(F)ccc2c1OB(O)[C@@H](NC(=O)[C@@H](NC(=O)N1CCN(C3CCN(C(=O)Nc4ccc(O)cc4)CC3)C1=O)c1cc(F)c(O)c(O)c1Cl)C2 (single isomer, unassigned) was > 5.00
